Data provenance: patent US20230416225A1

experimentalSystem: Human HPK1, catalytic domain (Homo sapiens)
Sequence (Q92918 1-346): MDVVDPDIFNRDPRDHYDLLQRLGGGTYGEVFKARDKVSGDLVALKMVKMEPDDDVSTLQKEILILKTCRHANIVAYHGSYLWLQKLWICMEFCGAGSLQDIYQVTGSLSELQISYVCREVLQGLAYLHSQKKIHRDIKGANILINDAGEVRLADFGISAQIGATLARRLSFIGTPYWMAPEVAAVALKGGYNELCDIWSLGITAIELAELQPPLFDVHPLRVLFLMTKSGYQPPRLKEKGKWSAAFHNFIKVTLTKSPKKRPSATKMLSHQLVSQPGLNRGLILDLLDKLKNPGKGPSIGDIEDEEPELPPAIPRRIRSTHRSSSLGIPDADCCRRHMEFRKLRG
pIC50: −log10 of the molar value.
Use 8 as the dividing line for pIC50, with the line itself on the t side and lower values as f.

compound	assignedClass
COc1cc2c(cc1Nc1ncc(C(N)=O)c(NC3CC[C@H]4NCCC[C@@H]34)n1)CN(C)CC2 (some centres unmarked)	t
Cc1cccc(F)c1Nc1nc(Nc2cnn(CC(C)(C)O)c2)ncc1C(N)=O	f
COc1cc2c(cc1Nc1ncc(C(N)=O)c(Nc3ccc(F)cc3)n1)CN(C)CC2	t
C#C[C@H]1CC[C@@H](Nc2nc(Nc3cc4c(cc3OC)CCN(C)C4)ncc2C(N)=O)CC1	t
COc1cc(C(=O)N2CCN(C)CC2)ccc1Nc1ncc(C(N)=O)c(Nc2ccccc2C(F)(F)F)n1	f
NC(=O)c1cnc(Nc2cnn(CC3CC3)c2)nc1Nc1cccc2c1CCNC2=O	t
CCC(C)c1ccccc1Nc1nc(Nc2cc3c(cc2OC)CCN(C)C3)ncc1C(N)=O (centres unmarked)	t
COc1cc2c(cc1Nc1ncc(C(N)=O)c(Nc3cccc(CN)c3)n1)CN(C)CC2	t
COc1cc2c(cc1Nc1ncc(C(N)=O)c(Nc3ccccc3Br)n1)CN(C1CC(C#N)C1)CC2 (centres unmarked)	t
COc1cc2c(cc1Nc1ncc(C(N)=O)c(Nc3ccccc3Br)n1)CN(C(=O)C1CCC1)CC2	f
COc1cc2c(cc1Nc1ncc(C(N)=O)c(Nc3ccccc3-c3ncco3)n1)CN(C)CC2	t
COc1cc2c(cc1Nc1ncc(C(N)=O)c(Nc3cccc4c3CCNC4)n1)CN(C)CC2	t
Cc1cccc(F)c1Nc1nc(Nc2cnn(CC3CC3)c2)ncc1C(N)=O	f
COc1cc2c(cc1Nc1ncc(C(N)=O)c(Nc3ccccc3Br)n1)CN(C(=O)C1CCC1(F)F)CC2 (centres unmarked)	f
COc1cc2c(cc1Nc1ncc(C(N)=O)c(Nc3ccccc3C(F)(F)F)n1)C(C1CC1)N(C)CC2 (single isomer, unassigned) [Example 20-1]	t
NC(=O)c1cnc(Nc2cnn3c2OCCC3)nc1Nc1cccc2c1CCNC2=O	t
CN1CCc2cc(F)c(Nc3ncc(C(N)=O)c(Nc4c(F)cccc4C(F)(F)F)n3)cc2C1	t
COc1cc2c(cc1Nc1ncc(C(N)=O)c(Nc3ccc(C)cc3)n1)CN(C)CC2	t
NC(=O)c1cnc(Nc2cccc3sccc23)nc1Nc1cccc2c1CCNC2=O	f
COc1cc2c(cc1Nc1ncc(C(N)=O)c(Nc3ccccc3Br)n1)CN(C1CC(CO)C1)CC2 (single isomer, unassigned)	t
COc1cc2c(cc1Nc1ncc(C(N)=O)c(NCc3ccc(C(F)(F)F)cc3)n1)CN(C)CC2	f
CCc1ccccc1Nc1ncc(C(N)=O)c(Nc2cccc3c2CCNC3=O)n1	f
Cc1cccc(F)c1Nc1nc(Nc2c(C)n[nH]c2C)ncc1C(N)=O	f
NC(=O)c1cnc(Nc2ccccc2OC(F)F)nc1Nc1cccc2c1CCNC2=O	f
COc1cc2c(cc1Nc1ncc(C(N)=O)c(Nc3ccccc3CC(F)(F)F)n1)CN(C)CC2	t
COc1cc2c(cc1Nc1ncc(C(N)=O)c(Nc3ccccc3C[C@@H](O)c3ccccc3)n1)CN(C)CC2	f
NC(=O)c1cnc(Nc2ccc3c(c2)COC3=O)nc1Nc1ccccc1Br	f
Cc1cccc(F)c1Nc1nc(Nc2cnn(CC(F)(F)F)c2)ncc1C(N)=O	f
NC(=O)c1cnc(Nc2cc(F)cc(F)c2)nc1Nc1cccc2c1CCNC2=O	f
COc1cc2c(cc1Nc1ncc(C(N)=O)c(Nc3c(C)noc3C)n1)CN(C)CC2	t
Cn1cc(Nc2ncc(C(N)=O)c(N[C@H](CO)C3CCCCC3)n2)cn1	f
